System: SNB-19
Assay: NCI tumour cell line growth inhibition, 48 h
Activity calls are given as the source filed them. No stated cut-off is given here; in the data, active = GI50 up to about 1.1 µM and inactive = higher.
In this section, each of the compounds is paired with its reported GI50.

The reported SNB-19 GI50 of CCCCCCCCC/C=C1\CCC(CN(C)C)C1=O (stereo unspecified) is 5.87 µM (inactive)

GI50 for SNB-19 with input CN1C(=O)C23CC4=CC=CC(O)C4N2C(=O)C1(CO)SS3 (stereo unspecified) equals 0.553 µM (active)

GI50 for SNB-19 with input COc1ccc2cc(Oc3ccc(Cl)cc3)c(=O)oc2c1 equals > 100 µM (inactive)

Bench note, SNB-19: CC(C)C/N=C(\N)N=C(N)N , GI50 reads > 100 µM (inactive)

Item CN(C)CCCSc1nc2c(c(=N)n1-c1ccccc1)c(=S)n(-c1ccccc1)c(=S)n2-c1ccccc1 was tested on SNB-19; the reported GI50 is 2.51 µM (inactive)

SNB-19 GI50 of COC(=O)C(C(=O)C(N)=O)c1csc(-n2nc(-c3ccccc3)cc2-c2ccccc2)n1 (stereo unspecified) is 12.5 µM (inactive)

SNB-19 assay, compound NCCNc1ncnc2ccc(Cl)cc12 , recorded GI50 = > 100 µM (inactive)

Record COc1ccc(/C=C2\CCS(=O)(=O)c3ccccc3C2=O)cc1 has SNB-19 GI50 equal to 24.5 µM (inactive)

Tested on SNB-19: C[N+](C)(C)c1ccc(C(N)C(=O)O)cc1 (stereo unspecified) . Observed GI50: > 100 µM (inactive)

The compound CN(C)CCNC(=O)Cn1ccc(=O)c2cc([N+](=O)[O-])ccc21 , tested on SNB-19, showed GI50 of > 100 µM (inactive)

SNB-19 assay, compound COc1cc2c3c(c1OC)C1(C=CC(=O)C=C1)CC3N(C(=O)OC(C)(C)C(Cl)(Cl)Cl)CC2 (stereo unspecified) , recorded GI50 = 14.9 µM (inactive)

====

Test system: K562
Test: NCI tumour cell line growth inhibition, 48 h
Calls of active or inactive are those of the source. Cut-off read from the data, not from the text of the source: active = GI50 up to about 1.1 µM and inactive = higher.
API: response.call in 1 for active, -1 for inactive

compound: CN(C)CCNC(=O)Cn1ccc(=O)c2cc([N+](=O)[O-])ccc21
class: -1
--
compound: N#Cc1nc(C(F)(F)F)oc1N
class: -1
--
compound: NS(=O)(=O)c1ccc(/N=N/c2nc3nc(O)nc(O)c3[nH]2)cc1
class: -1
--
compound: CN1CCN(c2nc3ccccc3nc2C(=O)c2ccc(Cl)cc2)CC1
class: -1
--
compound: O=C1CC(n2ccnc2)c2c(Cl)sc(Cl)c21 (stereo unspecified)
class: -1

Task: Can you look up the reported call for COc1ccc(-c2c(C#N)c(-c3ccccc3)n(NS(=O)(=O)c3ccccc3)c(=O)c2C#N)cc1 for me?
Result: -1

Task: Returns: the outcome recorded for C=C1C(=O)O[C@H]2[C@H]3O[C@@H](C[C@@H]12)[C@@]1(C)CC[C@H](O1)C(C)=CCC[C@H]3C in this assay.
Result: 1

Task: Please state the recorded outcome for this compound: COC1(OC)CCCCC2c3cccc(OC(C)=O)c3C21OC(C)=O (stereo unspecified)
Result: -1

Task: Called result for COC(=O)C1=CC2OC1(C)C1(CC1)C2=O (stereo unspecified)
Result: -1

Task: Identify the outcome logged in this assay for the compound shown: CN(C)/C=C1\CCc2ccc([N+](=O)[O-])cc2C1=O
Result: -1

Task: What outcome does the record of this test show for CCN1CC(C)Cn2c(=O)[nH]c3cc(Br)cc1c32 (stereo unspecified) ?
Result: -1
